- System: Saccharomyces cerevisiae
- ASSAY: protein stability index of tFT-peptide fusion (C-terminal peptide) (PSI (0-1 scale)); higher = more stable (slower turnover)
- CONDITION DESCRIPTION: genetic background: wild type; temperature: 30 C
Binary call on protein stability index: TRUE from 0.7 upward, FALSE beneath that.

Some solved entries appear below for comparison.
{"MONOMER SEQUENCE": "KRVIVRLASYAS", "LABEL": "FALSE"}
{"MONOMER SEQUENCE": "PPPPPAPPLSLP", "LABEL": "FALSE"}
{"MONOMER SEQUENCE": "SFPLPSLSSPSS", "LABEL": "FALSE"}
{"MONOMER SEQUENCE": "GGRGRGGEMGGR", "LABEL": "TRUE"}
{"MONOMER SEQUENCE": "LSSCVRVSFLFF", "LABEL": "FALSE"}
{"MONOMER SEQUENCE": "SLVIRLNIRLIL", "LABEL": "FALSE"}
{"MONOMER SEQUENCE": "VCSYISGRKSVL", "LABEL": "FALSE"}
{"MONOMER SEQUENCE": "VWTPWSTKDCLG", "LABEL": "TRUE"}

Given CLCLGGIWIVGG , state whether its protein stability index is at least 0.7. FALSE

Given PPPPPPPHHSPP , state whether its protein stability index is at least 0.7. TRUE

Given LAKVNSLLGFSK , state whether its protein stability index is at least 0.7. TRUE

Given IPSSMWHICCLC , state whether its protein stability index is at least 0.7. FALSE

Given LKRDLGGTSTRG , state whether its protein stability index is at least 0.7. FALSE

Given AKDSVDYKEGES , state whether its protein stability index is at least 0.7. FALSE

Given SSPAGSRLPFGS , state whether its protein stability index is at least 0.7. TRUE

Given PPRLLATVTRGT , state whether its protein stability index is at least 0.7. FALSE

Given PPPFRFPALLPP , state whether its protein stability index is at least 0.7. FALSE

Given GVGWVWGGVWAG , state whether its protein stability index is at least 0.7. TRUE

* * *

- Test system: Saccharomyces cerevisiae
- ASSAY: protein stability index of tFT-peptide fusion (C-terminal peptide) (PSI (0-1 scale)); higher = more stable (slower turnover)
- CONDITION DESCRIPTION: genetic background: wild type; temperature: 30 C
Measured protein stability index of individual entries

In the examples that follow, each entry is paired with its recorded protein stability index.
{"MONOMER SEQUENCE": "SPPSLYRRVRPS", "MEASURE NAME": "protein stability index", "OBSERVED MEASUREMENT": 0.63}
{"MONOMER SEQUENCE": "GECAELSSVGGG", "MEASURE NAME": "protein stability index", "OBSERVED MEASUREMENT": 0.664}
{"MONOMER SEQUENCE": "GALGGDSGKGGG", "MEASURE NAME": "protein stability index", "OBSERVED MEASUREMENT": 0.677}

Hey, Saccharomyces cerevisiae data for ESGPQWLGTFVT : protein stability index came out at 0.733

Hey, Saccharomyces cerevisiae data for GCSNESVGVISG : protein stability index came out at 0.644

Hey, Saccharomyces cerevisiae data for HTKHSQIIKHQS : protein stability index came out at 0.641

Hey, Saccharomyces cerevisiae data for NTYKICVVSVTS : protein stability index came out at 0.413

Hey, Saccharomyces cerevisiae data for PSAFQCQWKTSA : protein stability index came out at 0.638

Hey, Saccharomyces cerevisiae data for GTDLKGFPFLTF : protein stability index came out at 0.688

Hey, Saccharomyces cerevisiae data for CLWSDQLFFYFG : protein stability index came out at 0.734

Hey, Saccharomyces cerevisiae data for LVFRSGWVSLIG : protein stability index came out at 0.641

* * *

- Tested on: Saccharomyces cerevisiae
- ASSAY: protein stability index of tFT-peptide fusion (C-terminal peptide) (PSI (0-1 scale)); higher = more stable (slower turnover)
- CONDITION DESCRIPTION: genetic background: wild type; temperature: 37 C
Binary call on protein stability index: 1.0 from 0.2 upward, 0.0 beneath that.

Some solved entries appear below for comparison.
{"MONOMER SEQUENCE": "FFCCFVFVLGFC", "ASSAY TARGET": "Saccharomyces cerevisiae", "LABEL": 1.0}
{"MONOMER SEQUENCE": "WAFVVCGAVFFW", "ASSAY TARGET": "Saccharomyces cerevisiae", "LABEL": 1.0}
{"MONOMER SEQUENCE": "LPNLPPTSPERH", "ASSAY TARGET": "Saccharomyces cerevisiae", "LABEL": 1.0}
{"MONOMER SEQUENCE": "CIIAVMISIVSF", "ASSAY TARGET": "Saccharomyces cerevisiae", "LABEL": 0.0}

Given SLLFLVLFFPLV , state whether its protein stability index is at least 0.2. 1.0

Given GLSLLLLWFKVC , state whether its protein stability index is at least 0.2. 0.0

Given LVVFLRFFLRVL , state whether its protein stability index is at least 0.2. 0.0

Given AGLLVLISWRLF , state whether its protein stability index is at least 0.2. 1.0

Given RVYLLGLFVRSG , state whether its protein stability index is at least 0.2. 1.0

* * *

- Tested on: Saccharomyces cerevisiae
- ASSAY: protein stability index of tFT-peptide fusion in deletion strain of DOA10 (PSI (0-1 scale)); higher = more stable (slower turnover)
MEASURE NAME: protein stability index
Returns: the value as a bare number; no unit string appended.

{"MONOMER SEQUENCE": "AITLPMIPLLLR", "protein stability index": 0.595}
{"MONOMER SEQUENCE": "GLYMCSVGCWQR", "protein stability index": 0.677}
{"MONOMER SEQUENCE": "RVTRLDAIYQRI", "protein stability index": 0.707}
{"MONOMER SEQUENCE": "RVTRLDAHYFRI", "protein stability index": 0.71}
{"MONOMER SEQUENCE": "AITLSMCPLLLR", "protein stability index": 0.653}

Recorded result, GLDMCSVGCWFR , protein stability index: 0.689

* * *

- System: Saccharomyces cerevisiae
- ASSAY: protein stability index of tFT-peptide fusion (C-terminal peptide) (PSI (0-1 scale)); higher = more stable (slower turnover)
- CONDITION DESCRIPTION: genetic background: wild type; temperature: 30 C
Each entry belongs to exactly one class, chosen by where its protein stability index falls: bin 1 (below 0.2), bin 2 (0.2 to below 0.3), bin 3 (0.3 or more)

Some solved entries appear below for comparison.
{"MONOMER SEQUENCE": "VVIYWFLPIIFA", "LABEL": "bin 1"}
{"MONOMER SEQUENCE": "VGLLFGWVWSLW", "LABEL": "bin 3"}
{"MONOMER SEQUENCE": "FGVECDLCLFCC", "LABEL": "bin 2"}
{"MONOMER SEQUENCE": "LCWRLCRFWWVG", "LABEL": "bin 2"}
{"MONOMER SEQUENCE": "RRSRLYKKAGLM", "LABEL": "bin 1"}

Hello team, could you let me know which band the following sequence falls into: SDAIKITFIIHN bin 3

Hello team, could you let me know which band the following sequence falls into: VCAFCLFFVPLP bin 3

Hello team, could you let me know which band the following sequence falls into: FSFCFCFPLSSL bin 2

* * *

- System: Saccharomyces cerevisiae
- ASSAY: protein stability index of tFT-peptide fusion (C-terminal peptide) (PSI (0-1 scale)); higher = more stable (slower turnover)
- CONDITION DESCRIPTION: genetic background: wild type; temperature: 30 C
Measured protein stability index of individual entries
Returns: the value as a bare number; no unit string appended.

{"MONOMER SEQUENCE": "LDQQKSCHLIFL", "protein stability index": 0.663}

Recorded result, IKSHHVIPNSCL , protein stability index: 0.616

Recorded result, KKKKDQQQELKN , protein stability index: 0.657

* * *

- Test system: Saccharomyces cerevisiae
- ASSAY: protein stability index of tFT-peptide fusion (C-terminal peptide) (PSI (0-1 scale)); higher = more stable (slower turnover)
- CONDITION DESCRIPTION: genetic background: wild type; temperature: 30 C
Measured protein stability index of individual entries
Returns: the value as a bare number; no unit string appended.

In the examples that follow, each entry is paired with its recorded protein stability index.
{"MONOMER SEQUENCE": "WHDLDRGSFRAV", "protein stability index": 0.669}
{"MONOMER SEQUENCE": "PLPPLLPPSPPP", "protein stability index": 0.767}
{"MONOMER SEQUENCE": "YCRSFSGPFFDI", "protein stability index": 0.745}
{"MONOMER SEQUENCE": "PTSPLVFFFVPL", "protein stability index": 0.624}

Recorded result, KRIKTEKRRSKK , protein stability index: 0.748

Recorded result, VFYVGGGAVVRG , protein stability index: 0.689

Recorded result, RLLLLLTCIIYI , protein stability index: 0.256

Recorded result, FSPSPVFVTCRV , protein stability index: 0.356

Recorded result, SCPPVLFFPFPW , protein stability index: 0.705

Recorded result, RGGWWGYRGGVP , protein stability index: 0.718

Recorded result, PIFVCPFPGSLV , protein stability index: 0.683

Recorded result, PPSPSFLPPPPP , protein stability index: 0.676
